target: human α1b-adrenoceptor (Homo sapiens); construct: expressed in transfected cells; test: [3H]prazosin binding to cloned human α1-adrenoceptor subtypes (α1b); settings: [3H]prazosin, CHO cell membranes; read-out: Binding affinity (Ki, nM) α1b
Sequence (P35368 whole entry): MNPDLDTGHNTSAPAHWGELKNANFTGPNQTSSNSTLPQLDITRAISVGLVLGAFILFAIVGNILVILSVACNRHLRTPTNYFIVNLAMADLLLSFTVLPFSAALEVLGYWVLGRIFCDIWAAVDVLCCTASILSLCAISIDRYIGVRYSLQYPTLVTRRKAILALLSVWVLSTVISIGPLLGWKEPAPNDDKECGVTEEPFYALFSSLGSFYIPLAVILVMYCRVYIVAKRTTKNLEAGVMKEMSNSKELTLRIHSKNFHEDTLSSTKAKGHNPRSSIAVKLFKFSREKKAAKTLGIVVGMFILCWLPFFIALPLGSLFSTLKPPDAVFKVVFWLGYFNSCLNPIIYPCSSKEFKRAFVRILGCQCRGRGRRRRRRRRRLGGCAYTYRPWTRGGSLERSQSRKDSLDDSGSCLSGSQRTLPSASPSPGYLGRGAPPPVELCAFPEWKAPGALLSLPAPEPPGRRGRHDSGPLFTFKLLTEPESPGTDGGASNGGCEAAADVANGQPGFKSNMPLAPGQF
Some compounds, each annotated with its measured Ki.
Write the answer as a number in nM, unit excluded.

{"Compound": "COc1ccccc1N1CCN(CC[C@H](c2ccccc2F)[C@H](O)C2CCCCC2)CC1", "Target": "human α1b-adrenoceptor (Homo sapiens)", "Measurement Units": "nM", "Ki": 11}
{"Compound": "COc1ccccc1N1CCN(CC[C@@H](c2ccccc2F)[C@H](O)C2CCCCC2)CC1 (racemic)", "Target": "human α1b-adrenoceptor (Homo sapiens)", "Measurement Units": "nM", "Ki": 5.9}
{"Compound": "COc1ccccc1N1CCN(CC[C@H](c2ccccc2)[C@@H](O)C2CCCCC2)CC1 (racemic) [Ex. 5, reference compound]", "Target": "human α1b-adrenoceptor (Homo sapiens)", "Measurement Units": "nM", "Ki": 12}

--- query ---
Data point: COc1ccccc1N1CCN(CC[C@H](c2ccccc2F)[C@@H](O)C2CCCCC2)CC1 ; Ki = 11
